Data origin: ChEMBL document CHEMBL3885881

- Species: Rattus norvegicus
- Experiment: DrugMatrix - Regimen: Daily Repeat
- Format: toxicity, organism-based, Sprague-Dawley
- Design: regimen Daily Repeat, gender Male, age 6-8 weeks
- Condition notes: in vivo, po, 2 mg/kg, 120 h, tissue Blood, route oral GAVAGE, dose level High, time 5 day, vehicle 100 % SALINE
Quantity name: ABSOLUTE LYMPHOCYTE

q: Query (molecule): COc1cccc2c1C(=O)c1c(O)c3c(c(O)c1C2=O)C[C@@](O)(C(C)=O)C[C@@H]3O[C@H]1C[C@H](N)[C@H](O)[C@H](C)O1 [DAUNORUBICIN] ; field requested: ABSOLUTE LYMPHOCYTE
a: 7990 cells/µL

====

- Species on record: Rattus norvegicus
- Experiment: DrugMatrix - Regimen: Daily Repeat
- Assay type: toxicity, organism-based, Sprague-Dawley
- Design: regimen Daily Repeat, gender Male, age 6-8 weeks
- Condition notes: in vivo, po, 0 mg/kg, 120 h, tissue Plasma, route oral GAVAGE, dose level Control, time 5 day, […]
Quantity name: ALBUMIN (G/DL)
Numbers only, in G/DL.

Batch request: ALBUMIN for each of the following molecules.
1. O=c1c(-c2ccc(O)cc2)coc2cc(O)cc(O)c12
2. CC(=O)Oc1ccccc1C(=O)O

a:
[3.97, 4.15]

Batch request: ALBUMIN for each of the following molecules.
1. CCCCC(=O)N(Cc1ccc(-c2ccccc2-c2nnn[nH]2)cc1)[C@H](C(=O)O)C(C)C
2. CCc1ccc(CCOc2ccc(CC3SC(=O)NC3=O)cc2)nc1 (configuration not stated)
3. c1ccoc1
4. CS(=O)(=O)Nc1ccc([N+](=O)[O-])cc1Oc1ccccc1 [NIMESULIDE]
5. CC(C)c1c(C(=O)Nc2ccccc2)c(-c2ccccc2)c(-c2ccc(F)cc2)n1CC[C@@H](O)C[C@@H](O)CC(=O)O

a:
4.12
4.63
4.15
3.87
3.97

====

- Species: Rattus norvegicus
- Experiment: DrugMatrix - Regimen: Daily Repeat
- Type: toxicity, organism-based, Sprague-Dawley
- Parameters: regimen Daily Repeat, gender Male, age 6-8 weeks
- Condition notes: in vivo, iv, 0 mg/kg, 72 h, tissue Plasma, dose level Control, time 3 day, vehicle 100 % SALINE
Exercise: for every item that follows, state its recorded CREATINE PHOSPHOKINASE.
Give bare numbers, in u/L.

Reference set (4 entries):
C[N+](C)(C)CCOC(=O)CCC(=O)OCC[N+](C)(C)C.[Cl-].[Cl-] [SUCCINYLCHOLINE CHLORIDE]
378.67
N=C(N)c1ccc(OCCCCCOc2ccc(C(=N)N)cc2)cc1 [PENTAMIDINE]
378.67
O=C(O)P(=O)(O)O [FOSCARNET]
414.67
COc1cccc2c1C(=O)c1c(O)c3c(c(O)c1C2=O)C[C@@](O)(C(C)=O)C[C@@H]3O[C@H]1C[C@H](N)[C@H](O)[C@H](C)O1 [DAUNORUBICIN]
732.67

# input for lookup
q: Query (compound): O=c1[nH]c(=O)n([C@H]2C[C@H](O)[C@@H](CO)O2)cc1F [FLOXURIDINE] ; field requested: CREATINE PHOSPHOKINASE
a: 748.5

====

- Species: Rattus norvegicus
- Experiment: DrugMatrix - Regimen: Daily Repeat
- Format: toxicity, organism-based, Sprague-Dawley
- Set-up: regimen Daily Repeat, gender Male, age 6-8 weeks
- Condition notes: in vivo, po, 0 mg/kg, 120 h, tissue Plasma, route oral GAVAGE, dose level Control, time 5 day, vehicle .5 % CMC
Exercise: for every item that follows, state its recorded GLUCOSE.
One number for each entry, in mg/dL.

Batch request: GLUCOSE for each of the following compounds.
1. C[C@@](Cc1ccc(O)c(O)c1)(NN)C(=O)O.O
2. CN1C(=O)CN=C(c2ccccc2)c2cc([N+](=O)[O-])ccc21
3. COc1ccc2c(c1OC)C(=O)O[C@@H]2[C@H]1c2c(cc3c(c2OC)OCO3)CCN1C
4. NC(=O)N1c2ccccc2CC(=O)c2ccccc21 [OXCARBAZEPINE]
5. C[C@H]1[C@H](NC(=O)/C(=N\OC(C)(C)C(=O)O)c2csc(N)n2)C(=O)N1S(=O)(=O)O
6. C#C[C@]1(O)CC[C@H]2[C@@H]3CCC4=CC(=O)CC[C@]4(C)[C@H]3CC[C@@]21C

a:
1: 168.83; 2: 196.83; 3: 177.17; 4: 141.83; 5: 168.83; 6: 177.17

Batch request: GLUCOSE for each of the following compounds.
1. CN(C)C(=O)C(CCN1CCC(O)(c2ccc(Cl)cc2)CC1)(c1ccccc1)c1ccccc1 [LOPERAMIDE]
2. CCCNC(=O)NS(=O)(=O)c1ccc(Cl)cc1 [CHLORPROPAMIDE]
3. COc1ccccc1[N+](=O)[O-]
4. C[C@]12CC[C@@H]3c4ccc(O)cc4CC[C@H]3[C@@H]1C[C@@H](O)[C@@H]2O

a:
[177.83, 167.67, 185, 150.5]

====

- Species: Rattus norvegicus
- Experiment: DrugMatrix - Regimen: Daily Repeat
- Type: toxicity, organism-based, Sprague-Dawley
- Set-up: regimen Daily Repeat, gender Male, age 6-8 weeks
- Condition notes: in vivo, iv, 0 mg/kg, 72 h, tissue Blood, dose level Control, time 3 day, vehicle 100 % SALINE
Quantity name: HEMATOCRIT (%)
One number for each entry, in %.

Reference set (3 entries):
C[N+](C)(C)CCOC(=O)CCC(=O)OCC[N+](C)(C)C.[Cl-].[Cl-] [SUCCINYLCHOLINE CHLORIDE]
35.83
O=c1[nH]c(=O)n([C@H]2C[C@H](O)[C@@H](CO)O2)cc1F
34.05
O=C(O)P(=O)(O)O
33.98

Batch request: HEMATOCRIT for each of the following compounds.
1. N=C(N)c1ccc(OCCCCCOc2ccc(C(=N)N)cc2)cc1
2. COc1cccc2c1C(=O)c1c(O)c3c(c(O)c1C2=O)C[C@@](O)(C(C)=O)C[C@@H]3O[C@H]1C[C@H](N)[C@H](O)[C@H](C)O1

a:
1. 35.83
2. 34.62

====

- Organism: Rattus norvegicus
- Experiment: DrugMatrix - Regimen: Daily Repeat
- Format: toxicity, organism-based, Sprague-Dawley
- Design: regimen Daily Repeat, gender Male, age 6-8 weeks
- Condition notes: in vivo, po, 0 mg/kg, 120 h, tissue Plasma, route oral GAVAGE, dose level Control, time 5 day, […]
Label scheme for LIPASE: lower than 10 u/L is No, 10 u/L and above is Yes.

c1ccoc1
Yes
CC(C)c1c(C(=O)Nc2ccccc2)c(-c2ccccc2)c(-c2ccc(F)cc2)n1CC[C@@H](O)C[C@@H](O)CC(=O)O
No
CC(=O)Oc1ccccc1C(=O)O
Yes
CS(=O)(=O)Nc1ccc([N+](=O)[O-])cc1Oc1ccccc1 [NIMESULIDE]
Yes

q: Does LIPASE meet or surpass 10 u/L for O=c1c(-c2ccc(O)cc2)coc2cc(O)cc(O)c12 ?
a: No

q: Follow-up entry: CCc1ccc(CCOc2ccc(CC3SC(=O)NC3=O)cc2)nc1 (configuration not stated)
a: No

====

- Organism: Rattus norvegicus
- Experiment: DrugMatrix - Regimen: Daily Repeat
- Type: toxicity, organism-based, Sprague-Dawley
- Set-up: regimen Daily Repeat, gender Male, age 6-8 weeks
- Condition notes: in vivo, po, 0 mg/kg, 72 h, tissue Blood, route oral GAVAGE, dose level Control, time 3 day, vehicle 100 % WATER
Quantity name: MEAN CORPUSCULAR HEMOGLOBIN CONCENTRATION

CCCC(C)C1(CC)C(=O)NC(=O)NC1=O (stereo unspecified) [PENTOBARBITAL]
39.13 G/DL
C#Cc1cccc(Nc2ncnc3cc(OCCOC)c(OCCOC)cc23)c1 [ERLOTINIB]
30.62 G/DL
NC12CC3CC(CC(C3)C1)C2 [AMANTADINE]
39.95 G/DL
CCN(CC)CCNC(=O)c1ccc(N)cc1 [PROCAINAMIDE]
38.97 G/DL
O=c1[nH]c(=O)n(C2CCCO2)cc1F (stereo unspecified) [TEGAFUR]
39.53 G/DL
CNC1=Nc2ccc(Cl)cc2C(c2ccccc2)=[N+]([O-])C1 [CHLORDIAZEPOXIDE]
38.65 G/DL
CN(C)CCC=C1c2ccccc2CCc2ccccc21 [AMITRIPTYLINE]
39.95 G/DL
CCN(CC)CCOC(=O)C1(C2CCCCC2)CCCCC1 [DICYCLOMINE]
40.28 G/DL
CN(C)C(=O)Oc1cccc([N+](C)(C)C)c1.[Br-] [NEOSTIGMINE BROMIDE]
39.13 G/DL
CCN(C(C)=O)c1cccc(-c2ccnc3c(C#N)cnn23)c1 [ZALEPLON]
39.95 G/DL

# input for lookup
q: Query (molecule): NC(=O)c1cccnc1 [NIACINAMIDE] ; field requested: MEAN CORPUSCULAR HEMOGLOBIN CONCENTRATION
a: 37.57 G/DL
